The reader will find reported Kb values listed item by item below.
Biological target: histamine H2 receptor in atria (Cavia porcellus, UniProt P47747)
Construct: right atrium was isolated; from tissue; host or cells: isolated right atrium of male Hartley guinea pig
Sequence (P47747 whole entry): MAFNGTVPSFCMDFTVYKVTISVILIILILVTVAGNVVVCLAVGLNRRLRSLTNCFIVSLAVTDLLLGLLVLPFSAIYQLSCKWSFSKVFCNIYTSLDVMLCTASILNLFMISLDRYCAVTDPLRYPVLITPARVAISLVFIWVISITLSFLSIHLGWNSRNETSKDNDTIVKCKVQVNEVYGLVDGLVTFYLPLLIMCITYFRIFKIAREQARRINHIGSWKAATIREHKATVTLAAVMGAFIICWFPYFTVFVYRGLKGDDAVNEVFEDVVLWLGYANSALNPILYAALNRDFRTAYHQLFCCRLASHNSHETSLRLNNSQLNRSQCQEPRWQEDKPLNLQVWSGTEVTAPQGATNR
Experiment: Histamine H2 receptor inhibition effect by isolated guinea pig right atrium preparation (negative chronotropic effect)
Assay type: cell-based, Male Hartley Guinea Pig
Settings: 5×10^-6 mol sample 3 minutes prior to histamine, mean of five, read-out: inhibitory effect of histamine H2 receptor in atria (pA2 value) (converted)
Hi! Could you send only the number? It should be in nM, unit omitted.

Recorded results for 8 molecules are shown here.
{"columns": ["MOLECULE", "Kb (nM)"],
 "data": [
  ["O=c1[nH]c(NCCCOc2ccc3[nH]c(CN4CCCC4)nc3c2)nnc1Cc1cccnc1 [Example 84]", 2190],
  ["O=c1ccnc(NCCCOc2ccc3[nH]c(CN4CCCCC4)nc3c2)[nH]1 [Example 59]", 891],
  ["CN(C)Cc1nc2cc(OCCCNc3nc(N)nn3C)ccc2[nH]1 [Example 91]", 6460],
  ["CN(C)Cc1nc2cc(CSCCNC(N)=NS(=O)(=O)c3ccccc3)ccc2[nH]1 [Example 46]", 1170],
  ["CN(C)Cc1nc2cc(OCCCNc3ncc(Cc4ccc5c(c4)OCO5)c(=O)[nH]3)ccc2[nH]1 [Example 62]", 631],
  ["O=c1[nH]c(NCCCOc2ccc3[nH]c(CN4CCCC4)nc3c2)ncc1Cc1cccnc1 [Example 67]", 4680],
  ["CN(C)Cc1cnc(NCCCOc2ccc3[nH]c(CN4CCCCC4)nc3c2)[nH]c1=O [Example 61]", 3090],
  ["CN(C)Cc1nc2cc(CSCCNc3nnc(Cc4cccnc4)c(=O)[nH]3)ccc2[nH]1 [Example 87]", 603]
]}

Noted for CN(C)Cc1nc2cc(CSCCNc3nc(N)n[nH]3)ccc2[nH]1 [Example 96] : its Kb reads 933

Input O=c1[nH]c(NCCCOc2ccc3[nH]c(CN4CCCCC4)nc3c2)ncc1Cc1ccc2c(c1)OCO2 [Example 64] . Output Kb: 5890

Kb measured on CNC(=NC#N)NCCCOc1ccc2[nH]c(CN3CCCC3)nc2c1 [Example 3] = 1170

Recorded Kb (molecule CNC(=NC#N)NCCSCc1ccc2[nH]c(CN(C)C)nc2c1 [Example 35] ): 646

The recorded Kb for entry CNC(=NC#N)NCCCSCc1ccc2[nH]c(CN(C)C)nc2c1 [Example 37] equals 1660
